molecular target: Human recombinant DHX9 protein (Homo sapiens (Human), UniProt Q08211); test: DHX9 ATPase assay (ADP-Glo); format: biochemical
Sequence (Q08211 whole entry): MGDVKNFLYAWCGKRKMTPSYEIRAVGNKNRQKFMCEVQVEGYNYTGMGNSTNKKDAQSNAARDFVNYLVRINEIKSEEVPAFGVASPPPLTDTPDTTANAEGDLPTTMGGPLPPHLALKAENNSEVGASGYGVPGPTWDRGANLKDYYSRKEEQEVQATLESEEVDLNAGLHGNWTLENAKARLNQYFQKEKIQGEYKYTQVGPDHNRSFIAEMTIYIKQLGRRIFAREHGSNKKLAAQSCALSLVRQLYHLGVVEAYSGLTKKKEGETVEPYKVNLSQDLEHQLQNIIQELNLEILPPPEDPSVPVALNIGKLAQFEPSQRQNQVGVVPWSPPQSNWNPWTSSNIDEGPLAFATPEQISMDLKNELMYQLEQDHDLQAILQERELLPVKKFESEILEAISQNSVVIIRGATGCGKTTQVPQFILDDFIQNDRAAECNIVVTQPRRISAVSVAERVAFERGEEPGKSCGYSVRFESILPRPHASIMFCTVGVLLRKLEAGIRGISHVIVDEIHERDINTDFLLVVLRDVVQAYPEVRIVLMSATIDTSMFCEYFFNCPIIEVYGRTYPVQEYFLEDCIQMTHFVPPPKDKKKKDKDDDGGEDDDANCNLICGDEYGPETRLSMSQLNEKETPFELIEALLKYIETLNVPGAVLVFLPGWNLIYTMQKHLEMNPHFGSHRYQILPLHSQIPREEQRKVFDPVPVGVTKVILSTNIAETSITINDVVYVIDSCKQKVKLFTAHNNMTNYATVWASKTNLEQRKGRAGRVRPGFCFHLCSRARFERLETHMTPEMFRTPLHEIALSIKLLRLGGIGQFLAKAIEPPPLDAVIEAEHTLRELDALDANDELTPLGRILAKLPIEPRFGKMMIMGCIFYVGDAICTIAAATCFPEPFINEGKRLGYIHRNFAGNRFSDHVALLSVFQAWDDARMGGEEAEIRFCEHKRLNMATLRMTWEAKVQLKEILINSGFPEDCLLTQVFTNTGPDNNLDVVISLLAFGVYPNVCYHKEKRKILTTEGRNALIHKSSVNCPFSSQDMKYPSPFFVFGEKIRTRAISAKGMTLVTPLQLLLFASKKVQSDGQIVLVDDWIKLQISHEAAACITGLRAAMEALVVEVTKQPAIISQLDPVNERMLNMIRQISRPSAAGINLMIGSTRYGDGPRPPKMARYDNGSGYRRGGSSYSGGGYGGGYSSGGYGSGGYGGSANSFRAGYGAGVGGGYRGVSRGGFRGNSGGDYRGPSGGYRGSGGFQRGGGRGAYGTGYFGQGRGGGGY
VALUE_TYPE: DHX9 Biochemical Max Inhibition
No unit in the answer, please; the number alone is enough.

These recorded examples may help you get a feel for the data.
MOLECULE	TARGET_ENTITY	VALUE_TYPE	REPORTED_RESULT
Cc1sc(C(=O)Nc2cc(Cl)cc(NS(C)(=O)=O)c2)cc1-c1ncc(N2CCC(F)(F)C2)cc1F [Example 484]	Human recombinant DHX9 protein (Homo sapiens (Human), UniProt Q08211)	DHX9 Biochemical Max Inhibition	66.5
Cn1cc(C(=O)Nc2cc(Cl)cc(NS(C)(=O)=O)c2)cc1-c1ccc(N2CC(F)(F)C2)cn1 [Example 595]	Human recombinant DHX9 protein (Homo sapiens (Human), UniProt Q08211)	DHX9 Biochemical Max Inhibition	69.35
CS(=O)(=O)Nc1cc(Cl)cc(NC(=O)c2cc(-c3ncc(N4CC(C(F)(F)F)C4)cn3)n(CC(F)F)c2)c1 [Example 508]	Human recombinant DHX9 protein (Homo sapiens (Human), UniProt Q08211)	DHX9 Biochemical Max Inhibition	67.1

Query block: Quick one: DHX9 Biochemical Max Inhibition for Cc1sc(C(=O)Nc2cc(Cl)cc(NS(C)(=O)=O)c2)cc1-c1ncc(OC(C)C)cc1F [Example 455] ?
Result block: 67.3

###

target: Human recombinant DHX9 protein (Homo sapiens (Human), UniProt Q08211); assay: DHX9 ATPase assay (ADP-Glo); format: biochemical
VALUE_TYPE: DHX9 Biochemical Max Inhibition
Please give only the number in your answer, with no unit.

MOLECULE	REPORTED_RESULT
Cn1cc(C(=O)Nc2cc(Cl)cc(NS(C)(=O)=O)c2)cc1-c1ccc(Cl)cn1	68.1
CN(C)C(=O)c1cccc(OCc2cccc(F)c2)c1-n1cc(C(=O)Nc2cc(Cl)cc(NS(C)(=O)=O)c2)cn1	68.1
Cc1sc(C(=O)Nc2cc(Cl)cc(NS(C)(=O)=O)c2)cc1-c1ccc(N2CC(C(F)(F)F)C2)cn1	71.9
COc1cc(F)cnc1-n1cc(C(=O)Nc2cc(Cl)cc(NS(C)(=O)=O)c2)cc1C	77

Query block: Look at this molecule and give its reported DHX9 Biochemical Max Inhibition. "Cc1cc(C(=O)Nc2cc(Cl)cc(NS(C)(=O)=O)c2)cn1-c1ncc(N2CCCC2=O)cn1"
Result block: 70.3

Query block: Returns the measured DHX9 Biochemical Max Inhibition for the input molecule. Input: "CC(C)(O)c1cc(C(=O)Nc2cc(Cl)cc(NS(C)(=O)=O)c2)cn1-c1ccccn1"
Result block: 80.6

###

DHX9 Biochemical Max Inhibition listing for selected compounds.
biological target: Human recombinant DHX9 protein (Homo sapiens (Human), UniProt Q08211); assay: DHX9 ATPase assay (ADP-Glo); type: biochemical
Give the figure only, with no unit attached.

// solved cases for DHX9 Biochemical Max Inhibition follow
COMPOUND	TARGET_ENTITY	DHX9 Biochemical Max Inhibition
CCCS(=O)(=O)Nc1cc(Cl)cc(NC(=O)c2cc(-c3ccc(N4CC(F)(F)C4)cn3)n(C)c2)c1 [Example 531]	Human recombinant DHX9 protein (Homo sapiens (Human), UniProt Q08211)	72.3
CSc1cnc(-n2cc(C(=O)Nc3cc(Cl)cc(NS(C)(=O)=O)c3)cc2C)nc1 [Example 658]	Human recombinant DHX9 protein (Homo sapiens (Human), UniProt Q08211)	73.1
Cc1sc(C(=O)Nc2cc(Cl)cc(NS(C)(=O)=O)c2)cc1-c1ncc(N2CC3C(C2)C3(C)C)cc1F (centres unmarked) [Example 476]	Human recombinant DHX9 protein (Homo sapiens (Human), UniProt Q08211)	61.1
Cc1sc(C(=O)Nc2cc(Cl)cc(NS(C)(=O)=O)c2)cc1-c1ncc(C2CCN(CC(F)(F)F)CC2)cc1F [Example 618]	Human recombinant DHX9 protein (Homo sapiens (Human), UniProt Q08211)	66.6
Cc1cc(C(=O)Nc2cc(Cl)cc(NS(C)(=O)=O)c2)cn1-c1ncc(F)cc1F [Example 444]	Human recombinant DHX9 protein (Homo sapiens (Human), UniProt Q08211)	72.9

Query block: Value wanted: DHX9 Biochemical Max Inhibition (Human recombinant DHX9 protein (Homo sapiens (Human), UniProt Q08211)) of entry Cc1sc(C(=O)Nc2cc(Cl)cc(NS(C)(=O)=O)c2)cc1-c1ncc(C#N)cn1 [Example 585]
Result block: 70.9

Query block: Return DHX9 Biochemical Max Inhibition measured with Human recombinant DHX9 protein (Homo sapiens (Human), UniProt Q08211) given this compound: CCS(=O)(=O)Nc1cc(Cl)cc(NC(=O)c2cc(C)n(-c3ncc(F)cc3Cl)c2)c1 [Example 446]
Result block: 64.1

Query block: Please tell me: DHX9 Biochemical Max Inhibition of Cc1cc(C(=O)Nc2cc(Cl)cc(NS(C)(=O)=O)c2)cn1-c1ccc(N2CC(F)(F)C2)cn1 [Example 399] , system Human recombinant DHX9 protein (Homo sapiens (Human), UniProt Q08211)?
Result block: 72.1

Query block: # returns recorded DHX9 Biochemical Max Inhibition (system: Human recombinant DHX9 protein (Homo sapiens (Human), UniProt Q08211)) for Cc1sc(C(=O)Nc2cc(Cl)cc(NS(C)(=O)=O)c2)cc1-c1ccc(N2CC3(C2)CC(F)(F)C3)cn1 [Example 499]
Result block: 68.1

Query block: For Human recombinant DHX9 protein (Homo sapiens (Human), UniProt Q08211), provide DHX9 Biochemical Max Inhibition of Cc1sc(C(=O)Nc2cc(Cl)cc(NS(C)(=O)=O)c2)cc1-c1ncccc1OC(C)c1cc(F)cc(F)c1 (single isomer, unassigned) [Example 632] please.
Result block: 71.5

Query block: State its DHX9 Biochemical Max Inhibition on Human recombinant DHX9 protein (Homo sapiens (Human), UniProt Q08211): CS(=O)(=O)Nc1cc(Cl)cc(NC(=O)c2cnn(-c3ncccc3Oc3cccc(F)c3)c2)c1 [Example 427]
Result block: 58.4
